tested on: Plasmodium falciparum; assay: NOVARTIS: Inhibition of Plasmodium falciparum W2 (drug-resistant) proliferation in erythrocyte-based infection assay; assay type: functional, organism-based; settings: Plasmodium falciparum, W2; read-out: EC50
The entries below come with measured log10 EC50 values attached.
measurement-kind: log10 EC50 (log10 of the value in nM)

O=C(NCc1ccco1)C1CCN(S(=O)(=O)c2ccc(Cl)cc2)CC1 : 2.55
c1ccc(Cc2cc[n+](Cc3ccccc3)cc2)cc1 : 1.86
O=C(Nc1ccc(OC(F)(F)F)cc1)c1cnn2c1NC(c1cccs1)CC2C(F)(F)F (stereo unspecified) : 2.38
O=C1c2cc([N+](=O)[O-])ccc2-n2c1nc1ccccc1c2=O : 2.00
C[n+]1oc(C=Cc2ccccc2)cc1C=Cc1ccccc1 : 1.46
NC(=O)c1ccc2c(c1)N=C(c1cccnc1)N(C1CC1)C2 : 2.81
Cc1cc(C)c2c(c1)OCN(Cc1ccccc1Cl)C2 : 2.48
C=CC1CN2CCC1CC2C(O)c1ccnc2ccccc12 (stereo unspecified) : 1.92
CC(C)CC(=O)NCCCCNc1ccnc2cc(Cl)ccc12 : 2.63
COc1ccc(C2(CNCC(O)c3cccc([N+](=O)[O-])c3)CCCC2)cc1OC (stereo unspecified) : 1.72
